The origin of these recorded values is patent US20200055939A1.

Overview of reported % Inhibition across a group of binders:
Biological target: T1, MICA*008 on MEL-JUSO cells (human, UniProt Q29983 24-317); further: test concentration or dose not given here
T1 chain: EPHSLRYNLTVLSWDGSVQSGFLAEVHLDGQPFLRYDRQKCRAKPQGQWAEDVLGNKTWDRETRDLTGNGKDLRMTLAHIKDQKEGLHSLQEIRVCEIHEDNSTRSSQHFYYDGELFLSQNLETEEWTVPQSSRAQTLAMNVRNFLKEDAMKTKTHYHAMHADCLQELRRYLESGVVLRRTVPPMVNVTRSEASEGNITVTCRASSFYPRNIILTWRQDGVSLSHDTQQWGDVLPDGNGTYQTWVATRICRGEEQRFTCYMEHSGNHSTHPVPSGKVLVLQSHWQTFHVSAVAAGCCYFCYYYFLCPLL
Experiment: cell-based or functional assay
Provide only the numeric value, understood in %.

Solved entries:
Q: Tell me measured % Inhibition for 13A9v1 (antibody, IgG1, V domains shown, humanized variant of 13A9) VH: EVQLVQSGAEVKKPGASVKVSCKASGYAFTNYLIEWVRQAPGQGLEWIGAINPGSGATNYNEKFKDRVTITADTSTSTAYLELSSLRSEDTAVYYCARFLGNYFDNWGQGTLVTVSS VL: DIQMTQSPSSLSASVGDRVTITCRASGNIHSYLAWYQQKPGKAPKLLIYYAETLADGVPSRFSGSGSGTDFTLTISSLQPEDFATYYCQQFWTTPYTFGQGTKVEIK please.
Result: 10

Q: Supply reported % Inhibition belonging to this binder: 15F11v5 (antibody, IgG1, V domains shown, humanized variant of 15F11) VH: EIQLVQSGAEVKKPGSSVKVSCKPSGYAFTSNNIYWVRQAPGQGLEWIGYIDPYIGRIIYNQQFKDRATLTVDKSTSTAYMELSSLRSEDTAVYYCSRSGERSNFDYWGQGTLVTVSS VL: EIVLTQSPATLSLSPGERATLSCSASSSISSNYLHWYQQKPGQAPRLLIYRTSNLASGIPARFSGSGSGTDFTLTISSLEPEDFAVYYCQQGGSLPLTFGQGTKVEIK
Result: 62

New cases:
Q: Please indicate % Inhibition recorded for 1D5v10 (antibody, IgG1, V domains shown, humanized variant of 1D5) VH: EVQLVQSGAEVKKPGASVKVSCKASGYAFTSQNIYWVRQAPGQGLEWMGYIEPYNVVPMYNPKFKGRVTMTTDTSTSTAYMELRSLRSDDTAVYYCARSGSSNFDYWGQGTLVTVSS VL: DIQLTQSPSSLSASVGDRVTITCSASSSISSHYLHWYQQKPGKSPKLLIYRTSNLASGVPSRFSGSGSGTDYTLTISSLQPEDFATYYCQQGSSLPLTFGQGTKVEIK
Result: 58

Q: Please indicate % Inhibition recorded for 1D5v28 (antibody, IgG1, V domains shown, humanized variant of 1D5) VH: EIQLVQSGAEVKKPGASVKVSCKASGYAFTSQNIYWVRQAPGQGLEWIGYIEPYNVVPLYNPKFKGRATLTVDKSTSTAYLELSSLRSEDTAVYYCARSGSSNFDYWGQGTLVTVSS VL: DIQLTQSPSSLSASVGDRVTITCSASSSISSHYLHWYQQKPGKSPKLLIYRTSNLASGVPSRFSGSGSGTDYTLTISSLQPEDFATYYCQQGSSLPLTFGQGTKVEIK
Result: 0

Q: Provide % Inhibition value for the following binder: 1D5v19 (antibody, IgG1, V domains shown, humanized variant of 1D5) VH: EVQLVQSGAEVKKPGASVKVSCKASGYAFTSQNIYWVRQAPGQGLEWIGYIEPYNVVPMYNPKFKGRATLTVDKSTSTAYLELSSLRSEDTAVYYCARSGSSNFDYWGQGTLVTVSS VL: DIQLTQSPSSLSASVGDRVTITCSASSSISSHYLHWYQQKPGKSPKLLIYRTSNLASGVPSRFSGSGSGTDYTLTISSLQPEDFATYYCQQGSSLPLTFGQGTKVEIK
Result: 57
